Recorded pIC50 values for a group of molecules are listed next.
Target protein (sequence): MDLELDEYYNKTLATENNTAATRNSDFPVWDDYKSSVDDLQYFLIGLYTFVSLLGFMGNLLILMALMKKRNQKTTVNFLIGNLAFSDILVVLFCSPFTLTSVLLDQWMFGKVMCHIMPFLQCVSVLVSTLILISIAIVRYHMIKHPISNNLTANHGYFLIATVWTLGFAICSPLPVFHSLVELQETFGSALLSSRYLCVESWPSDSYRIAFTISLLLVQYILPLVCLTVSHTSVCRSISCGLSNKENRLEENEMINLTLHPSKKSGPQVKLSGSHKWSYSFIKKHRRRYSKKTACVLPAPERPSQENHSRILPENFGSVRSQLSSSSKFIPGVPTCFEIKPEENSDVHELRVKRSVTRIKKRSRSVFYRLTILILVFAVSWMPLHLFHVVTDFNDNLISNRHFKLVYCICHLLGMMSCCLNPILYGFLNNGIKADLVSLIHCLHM
A value of pIC50 is the negative decimal logarithm of a concentration given in moles per litre.

Recorded pIC50 of CC1CC(C)CN(c2cccc(NC[C@H]3CC[C@H](NS(=O)(=O)C(C)(C)C)CC3)c2)C1 (stereo partly shown) [Ii-1] , please.
10.00

Next up: CC(C)(C)S(=O)(=O)NC[C@H]1CC[C@H](Nc2ccc3ccccc3n2)CC1 [Ij-59]
8.60

Field entry: CCS(=O)(=O)N[C@H]1CC[C@H](CNc2ccc(S(=O)(=O)c3ccc(F)cc3)cc2)CC1 [Ii-34]
7.96

Now the molecule CC(C)S(=O)(=O)NC[C@H]1CC[C@H](Nc2ccc(OC3CCCC3)nn2)CC1 [Ij-52]
9.57
